# Test system: AR2 cells (HepG2-AR2)
reported-metric: hill_ga (Hill model log AC50)
Could you respond with only the numeric value?

Exercise: Consider the molecule CCC(C)(c1ccc(O)cc1)c1ccc(O)cc1 and give its measured hill_ga (Hill model log AC50).
Solution: 1.739

Exercise: Please answer likewise for Oc1ccc(C(c2ccc(O)cc2)(C(F)(F)F)C(F)(F)F)cc1
Solution: 1.485

Exercise: Please answer likewise for CC12CC1(C)C(=O)N(c1cc(Cl)cc(Cl)c1)C2=O (stereo not drawn)
Solution: -1.506

Exercise: Please answer likewise for CCCCOC(=O)c1ccccc1C(=O)OCCCC [Dibutyl phthalate]
Solution: 1.084

Exercise: Please answer likewise for Clc1ccc(C(c2ccc(Cl)cc2)C(Cl)Cl)cc1
Solution: 1.74

Exercise: Please answer likewise for Clc1ccc(C(c2ccccc2Cl)C(Cl)(Cl)Cl)cc1 (stereo not drawn)
Solution: 1.826

Exercise: Please answer likewise for N#Cc1c(Cl)cccc1Cl
Solution: 0

Exercise: Please answer likewise for OC(c1ccc(Cl)cc1)(c1cncnc1)c1ccccc1Cl (stereo not drawn)
Solution: 0

Exercise: Please answer likewise for CC1(C)C(C=C(Cl)Cl)C1C(=O)OC(C#N)c1ccc(F)c(Oc2ccccc2)c1 (stereo not drawn)
Solution: 0

Exercise: Please answer likewise for CNc1cnn(-c2cccc(C(F)(F)F)c2)c(=O)c1Cl
Solution: 0

Exercise: Please answer likewise for CC(C)(c1ccccc1)c1ccc(O)cc1
Solution: 1.81

Exercise: Please answer likewise for CC(C)(C)C(=O)C(Oc1ccc(Cl)cc1)n1cncn1 (stereo not drawn)
Solution: -3.878

Exercise: Please answer likewise for CCCCNC(=O)n1c(NC(=O)OC)nc2ccccc21
Solution: 0.6267

Exercise: Please answer likewise for C[C@]12CCC(=O)C[C@@H]1CC[C@@H]1[C@@H]2CC[C@]2(C)[C@@H](O)CC[C@@H]12 [5alpha-Dihydrotestosterone]
Solution: 1.263

Exercise: Please answer likewise for CC1(C)C(C=C(Cl)Cl)C1C(=O)OCc1cccc(Oc2ccccc2)c1 (stereo not drawn)
Solution: 0

Exercise: Please answer likewise for ClC(Cl)=C(c1ccc(Cl)cc1)c1ccc(Cl)cc1
Solution: 1.812

Exercise: Please answer likewise for CCNc1nc(Cl)nc(NCC)n1
Solution: -0.7451

Exercise: Please answer likewise for CC(C)NC(=O)N1CC(=O)N(c2cc(Cl)cc(Cl)c2)C1=O
Solution: 0

Exercise: Please answer likewise for Nc1nc[nH]n1
Solution: 1.008

Exercise: Please answer likewise for C=CC1(C)OC(=O)N(c2cc(Cl)cc(Cl)c2)C1=O (stereo not drawn)
Solution: -3.255

Exercise: Please answer likewise for CCOC(=O)c1ccccc1C(=O)OCC [Diethyl phthalate]
Solution: 0.07147

----------
# tested-on: human AR (Homo sapiens, UniProt P10275)
# Sequence (P10275 whole entry): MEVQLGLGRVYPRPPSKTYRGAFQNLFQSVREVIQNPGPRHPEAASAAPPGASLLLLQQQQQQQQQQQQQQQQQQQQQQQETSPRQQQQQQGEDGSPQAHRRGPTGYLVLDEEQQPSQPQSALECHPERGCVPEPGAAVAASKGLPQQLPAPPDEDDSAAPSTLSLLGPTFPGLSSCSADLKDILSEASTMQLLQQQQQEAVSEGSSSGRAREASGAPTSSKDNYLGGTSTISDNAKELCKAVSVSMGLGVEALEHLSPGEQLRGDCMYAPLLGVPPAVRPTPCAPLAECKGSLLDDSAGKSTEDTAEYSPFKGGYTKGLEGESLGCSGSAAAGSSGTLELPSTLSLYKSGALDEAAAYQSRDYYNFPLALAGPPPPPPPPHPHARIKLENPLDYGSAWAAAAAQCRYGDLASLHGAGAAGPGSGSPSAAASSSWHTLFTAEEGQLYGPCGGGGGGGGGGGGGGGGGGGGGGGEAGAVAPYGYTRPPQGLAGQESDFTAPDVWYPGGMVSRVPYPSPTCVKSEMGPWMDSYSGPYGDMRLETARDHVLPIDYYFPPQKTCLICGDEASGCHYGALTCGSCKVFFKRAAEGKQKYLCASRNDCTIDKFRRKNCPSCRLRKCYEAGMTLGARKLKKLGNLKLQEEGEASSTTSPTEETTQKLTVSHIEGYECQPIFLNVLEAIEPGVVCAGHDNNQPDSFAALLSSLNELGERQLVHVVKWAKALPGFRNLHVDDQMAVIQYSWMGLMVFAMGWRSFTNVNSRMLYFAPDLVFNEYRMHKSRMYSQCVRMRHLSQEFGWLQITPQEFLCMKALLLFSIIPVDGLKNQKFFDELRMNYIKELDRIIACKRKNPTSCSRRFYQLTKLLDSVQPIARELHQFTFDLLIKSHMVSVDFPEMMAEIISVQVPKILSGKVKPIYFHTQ
# Sequence (P10275 whole entry): as above
# assay-protocol: AR2 assay, agonist mode: ligand-dependent AR homodimerization (NanoBiT luciferase complementation) in stable HepG2-AR2 cells;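 further: Log2 fold change of luminescence over DMSO vehicle wells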
# Type: cell-based
# run-conditions: sheet agonist_fits; maximum median response
Counter-ions that a name gives are not always drawn.
Please respond with reported max_med for every item in the list.
Could you respond with only the numeric value?

Exercise: Consider the compound C[C@H]1CCCC(=O)CCC/C=C/c2cc(O)cc(O)c2C(=O)O1 [Zearalenone] and give its measured max_med.
Solution: 0.2969

Exercise: Please answer likewise for CC(C)=CC1C(C(=O)OCN2C(=O)C3=C(CCCC3)C2=O)C1(C)C (stereo not drawn) [Tetramethrin]
Solution: 0.4102

Exercise: Please answer likewise for CCCCOC(=O)c1ccc(O)cc1 [Butylparaben]
Solution: 0.1079

Exercise: Please answer likewise for O=c1c(-c2ccc(O)cc2)coc2cc(O)ccc12 [Daidzein]
Solution: 0.1579

Exercise: Please answer likewise for O=[N+]([O-])c1c(Cl)c(Cl)c(Cl)c(Cl)c1Cl [Pentachloronitrobenzene]
Solution: 0.2467

Exercise: Please answer likewise for O=C1C[C@@H](c2ccc(O)cc2)Oc2cc(O)cc(O)c21 [Naringenin]
Solution: 0.1409

Exercise: Please answer likewise for CCCCNC(=O)n1c(NC(=O)OC)nc2ccccc21 [Benomyl]
Solution: 0.04446

Exercise: Please answer likewise for O=[N+]([O-])c1ccc(O)c([N+](=O)[O-])c1 [2,4-Dinitrophenol]
Solution: 0.06149

Exercise: Please answer likewise for CC1(C)C(C=C(Cl)Cl)C1C(=O)OCc1cccc(Oc2ccccc2)c1 (stereo not drawn) [Permethrin]
Solution: 0.006626

Exercise: Please answer likewise for CC/C(=C(\c1ccc(O)cc1)c1ccc(OCCN(C)C)cc1)c1ccccc1 [Afimoxifene (4-Hydroxytamoxifen)]
Solution: 0.04316

Exercise: Please answer likewise for COC(=O)Nc1nc2ccccc2[nH]1 [Carbendazim]
Solution: 0.02367

Exercise: Please answer likewise for N#Cc1ccc(C(c2ccc(C#N)cc2)n2cncn2)cc1 [Letrozole]
Solution: 6.074

Exercise: Please answer likewise for CCOP(=S)(OCC)Oc1nc(Cl)c(Cl)cc1Cl [Chlorpyrifos]
Solution: -0.04623

Exercise: Please answer likewise for CNC(=O)O/N=C(\SC)C(=O)N(C)C [Oxamyl]
Solution: 0.09886

Exercise: Please answer likewise for O=C(c1ccc(O)cc1O)c1ccc(O)cc1O [2,2',4,4'-Tetrahydroxybenzophenone]
Solution: 2.26

Exercise: Please answer likewise for CC1(C)[C@H](C(=O)O[C@H](C#N)c2cccc(Oc3ccccc3)c2)[C@@H]1C=C(Br)Br [Deltamethrin]
Solution: 0.0322

Exercise: Please answer likewise for CC(C)(c1ccc(O)cc1)c1ccc(O)cc1 [Bisphenol A]
Solution: 0.1199

Exercise: Please answer likewise for CCCN(CCC)c1c([N+](=O)[O-])cc(C(F)(F)F)cc1[N+](=O)[O-] [Trifluralin]
Solution: 0.1998

Exercise: Please answer likewise for CCN(CC)CCOc1ccc(/C(=C(/Cl)c2ccccc2)c2ccccc2)cc1 [Enclomiphene hydrochloride]
Solution: 0.05981

Exercise: Please answer likewise for C[C@]12CC[C@@H]3c4ccc(O)cc4CC[C@H]3[C@@H]1CCC2=O [Estrone]
Solution: 3.757

Exercise: Please answer likewise for CC12CC1(C)C(=O)N(c1cc(Cl)cc(Cl)c1)C2=O (stereo not drawn) [Procymidone]
Solution: 0.2214

Exercise: Please answer likewise for O=c1c(-c2ccc(O)cc2)coc2cc(O)cc(O)c12 [Genistein]
Solution: 0.108

Exercise: Please answer likewise for C[C@]12CC[C@@H]3c4ccc(O)cc4C[C@@H](CCCCCCCCC[S+]([O-])CCCC(F)(F)C(F)(F)F)[C@H]3[C@@H]1CC[C@@H]2O (stereo partly drawn) [Fulvestrant]
Solution: 0.04086

Exercise: Please answer likewise for CNC(=O)Oc1cccc2c1OC(C)(C)C2 [Carbofuran]
Solution: 0.1027

Exercise: Please answer likewise for CC(C)(O)C(=O)Nc1ccc([N+](=O)[O-])c(C(F)(F)F)c1 [Hydroxyflutamide]
Solution: 5.832

Exercise: Please answer likewise for C[C@]12CC[C@H]3C(=CCc4cc(O)ccc43)[C@@H]1CCC2=O [Equilin]
Solution: 3.181

Exercise: Please answer likewise for CCOC(=O)CC(SP(=S)(OC)OC)C(=O)OCC (stereo not drawn) [Malathion]
Solution: 0.05987

Exercise: Please answer likewise for CCN(CC)CCOc1ccc(C(=C(Cl)c2ccccc2)c2ccccc2)cc1 [Clomiphene citrate]
Solution: -0.008157

Exercise: Please answer likewise for CCCC1COC(Cn2cncn2)(c2ccc(Cl)cc2Cl)O1 (stereo not drawn) [Propiconazole]
Solution: 0.05395

Exercise: Please answer likewise for COP(=O)(OC)O/C(=C\Cl)c1cc(Cl)c(Cl)cc1Cl [Z-Tetrachlorvinphos]
Solution: 0.08626

----------
Please respond with reported hill_tp for every item in the list.
# tested-on: human AR (Homo sapiens, UniProt P10275)
# assay-protocol: AR2 assay, agonist mode: ligand-dependent AR homodimerization (NanoBiT luciferase complementation) in stable HepG2-AR2 cells;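 further: Log2 fold change of luminescence over DMSO vehicle wells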
# Assay type: cell-based
# run-conditions: sheet agonist_fits; Hill model top (efficacy); 0 given where win_model is Constant

Exercise: Consider the molecule O=[N+]([O-])c1c(Cl)c(Cl)c(Cl)c(Cl)c1Cl and give its measured hill_tp.
Solution: 0.296

Exercise: Please answer likewise for C[C@]12CC[C@@H]3c4ccc(O)cc4CC[C@H]3[C@@H]1CCC2=O
Solution: 4.258

Exercise: Please answer likewise for CNC(=O)Oc1cccc2c1OC(C)(C)C2
Solution: 0

Exercise: Please answer likewise for CC1(C)[C@H](C(=O)O[C@H](C#N)c2cccc(Oc3ccccc3)c2)[C@@H]1C=C(Br)Br
Solution: 0

Exercise: Please answer likewise for O=C(c1ccc(O)cc1O)c1ccc(O)cc1O [2,2',4,4'-Tetrahydroxybenzophenone]
Solution: 2.275

----------
# tested-on: human AR (Homo sapiens)
# assay-protocol: cell-based
# Design: species or system AR2 cells (HepG2-AR2); NanoLuc complementation AR homodimerization, antagonist mode, loss of agonist-induced luminescence, AC50 by Hill fit
# run-conditions: hill_ga, spid=Bgal; antagonist mode, 10 nM agonist stimulus, 18 h, no CYP expressed
reported-metric: log10 of AC50 (log10 of the value in µM)
Reminder: these figures are log10 of reported AC50, in µM before transformation.

Exercise: Lab note: need log10 of AC50 with human AR (Homo sapiens) for entry CC(C)(c1ccc(O)cc1)c1ccc(O)cc1 , please look it up.
Solution: 1.12

Exercise: Please answer likewise for O=c1c(-c2ccc(O)cc2)coc2cc(O)ccc12
Solution: 1.78

Exercise: Please answer likewise for CCCCOC(=O)c1ccc(O)cc1
Solution: 1.86

Exercise: Please answer likewise for CC12CC1(C)C(=O)N(c1cc(Cl)cc(Cl)c1)C2=O (stereo not shown)
Solution: 0.58

Exercise: Please answer likewise for COP(=O)(OC)O/C(=C\Cl)c1cc(Cl)c(Cl)cc1Cl
Solution: 1.46

Exercise: Please answer likewise for CC/C(=C(\c1ccc(O)cc1)c1ccc(OCCN(C)C)cc1)c1ccccc1 [Afimoxifene (4-Hydroxytamoxifen)]
Solution: 0.86

Exercise: Please answer likewise for O=C(c1ccc(O)cc1O)c1ccc(O)cc1O [2,2',4,4'-Tetrahydroxybenzophenone]
Solution: 1.00
